Data provenance: ChEMBL document CHEMBL1154855

Tested on: HEL
Experiment: Cytotoxicity against Herpes simplex virus 1 KOS infected HEL cells by trypan blue exclusion method
Format: cell-based
Details: human, hel
Readout type: CC50 (µM)
Write the number in µM without appending the unit.

Using the record for COc1cc(/C=C/C(=O)CC(=O)/C=C/c2ccc(OC(=O)[C@H](Cc3ccccc3)NC(=O)[C@@H](N)Cc3c[nH]c4ccccc34)c(OC)c2)ccc1OC(=O)[C@H](Cc1ccccc1)NC(=O)[C@@H](N)Cc1c[nH]c2ccccc12 , report its CC50.
0.096

---

Assay: Cytotoxicity against Feline herpesvirus infected cat CRFK cells by trypan blue exclusion method
Type: cell-based, Felis catus
Details: CRFK cells infected with feline herpesvirus
Readout type: CC50

Using the record for Nc1nc2c(ncn2COC(CO)CO)c(=O)[nH]1 , report its CC50.
> 100 µM

---

Here, each record is paired with measured CC50 data.
Test: Cytotoxicity against HIV2 ROD infected human MT4 cells by MTT assay
Assay type: cell-based
Conditions: MT4 cells infected with HIV-2 ROD

Compound: COc1cc(/C=C/C(=O)CC(=O)/C=C/c2ccc(OCCOC(=O)CCC(NC(=O)c3ccc(NCc4cnc5nc(N)[nH]c(=O)c5n4)cc3)C(=O)O)c(OC)c2)ccc1O (stereo not given)
CC50: > 69 nM
--
Compound: COc1cc(/C=C/C(=O)C(CCOC(=O)CCC(NC(=O)c2ccc(NCc3cnc4nc(N)[nH]c(=O)c4n3)cc2)C(=O)O)C(=O)/C=C/c2ccc(O)c(OC)c2)ccc1O (stereo not given)
CC50: > 65 nM
--
Compound: CCCCCCCCCC(=O)Oc1ccc(/C=C/C(=O)CC(=O)/C=C/c2ccc(OC(=O)CCCCCCCCC)c(OC)c2)cc1OC
CC50: > 79 nM
--
Compound: COc1cc(/C=C/C(=O)CC(=O)/C=C/c2ccc(OC(=O)[C@H](Cc3ccccc3)NC(=O)[C@@H](N)Cc3c[nH]c4ccccc34)c(OC)c2)ccc1OC(=O)[C@H](Cc1ccccc1)NC(=O)[C@@H](N)Cc1c[nH]c2ccccc12
CC50: > 107 nM

Now take the following compound into account.
Using the record for COc1cc(/C=C/C(=O)CC(=O)/C=C/c2ccc(OC(=O)CCC(NC(=O)c3ccc(NCc4cnc5nc(N)[nH]c(=O)c5n4)cc3)C(=O)O)c(OC)c2)ccc1OC(=O)CCC(NC(=O)c1ccc(NCc2cnc3nc(N)[nH]c(=O)c3n2)cc1)C(=O)O (stereo not given) , report its CC50.
> 46 nM

---

Assay: Cytotoxicity against Herpes simplex virus 1 KOS infected HEL cells by trypan blue exclusion method
Type: cell-based
Conditions: human, HEL cells infected with herpes simplex virus 1 KOS
Here, each record is paired with measured CC50 data.

Smiles str: NC(=O)c1ncn([C@@H]2O[C@H](CO)[C@@H](O)[C@H]2O)n1
CC50: > 250 µM

Now take the following compound into account.
Using the record for Nc1nc2c(ncn2COC(CO)CO)c(=O)[nH]1 , report its CC50.
> 100 µM

---

Tested on: HeLa
Test: Cytotoxicity against Human coxsackievirus B4 infected human HeLa cells by trypan blue exclusion method
Type: cell-based
Settings: hela
Readout type: CC50

Look over these answered cases.
Molecule: COc1cc(/C=C/C(=O)CC(=O)/C=C/c2ccc(OC(=O)CCC(NC(=O)c3ccc(NCc4cnc5nc(N)[nH]c(=O)c5n4)cc3)C(=O)O)c(OC)c2)ccc1OC(=O)CCC(NC(=O)c1ccc(NCc2cnc3nc(N)[nH]c(=O)c3n2)cc1)C(=O)O (stereo unspecified)
CC50: > 82 nM
//
Molecule: Nc1ncnc2c1ncn2C[C@H](O)CO [(S)-DHPA]
CC50: > 250000 nM
//
Molecule: COc1cc(/C=C/C(=O)C(CCOC(=O)CCC(NC(=O)c2ccc(NCc3cnc4nc(N)[nH]c(=O)c4n3)cc2)C(=O)O)C(=O)/C=C/c2ccc(O)c(OC)c2)ccc1O (stereo unspecified)
CC50: > 11 nM

Using the record for COc1cc(/C=C/C(=O)CC(=O)/C=C/c2ccc(OCCOC(=O)CCC(NC(=O)c3ccc(NCc4cnc5nc(N)[nH]c(=O)c5n4)cc3)C(=O)O)c(OC)c2)ccc1O (stereo unspecified) , report its CC50.
> 119 nM

Using the record for COc1cc(/C=C/C(=O)CC(=O)/C=C/c2ccc(OC(=O)[C@H](Cc3ccccc3)NC(=O)[C@@H](N)Cc3c[nH]c4ccccc34)c(OC)c2)ccc1OC(=O)[C@H](Cc1ccccc1)NC(=O)[C@@H](N)Cc1c[nH]c2ccccc12 , report its CC50.
96 nM

Using the record for COc1cc(/C=C/C(=O)CC(=O)/C=C/c2ccc(O)c(OC)c2)ccc1O , report its CC50.
≥ 10 nM
